src = PubChem BioAssay (NCI)

# Tested on: CAKI-1 renal
# Method Notes: NCI-60 one-dose screen, 48 h
# Condition Context: 10 µM
# Experimental: Growth inhibition of the CAKI-1 human tumor cell line is measured as a screen for anti-cancer activity. Cells are grown in 96 well plates and exposed to the test compound for 48 hours. Compounds are tested at a single concentration, which is 10^-5 M for most compounds. The reported endpoint is percent growth (GI% or GIPRCNT), where numbers from 0 - 100% represent growth inhibition, and numbers from -100% - 0 represent cell death. For example, a value of 40 represents 60% growth inhibition. […]
About 83,000 compounds went through this panel and 20% of them were active in at least one assay; those are over-represented in the sample as a whole. Calls of active or inactive are those of the source. How the source made its calls: active means growth percent below 10; inactive means the rest.
// allowed return values: t = active, f = inactive

### Prompt Hi team, can someone confirm the assay call for COc1ccc(C)cc1OC ?
### Response f

### Prompt Hi team, can someone confirm the assay call for Cc1nc2ccccc2c2nnc(SCC(=O)N(Cc3ccccc3)c3ccccc3)n12 ?
### Response f

### Prompt Hi team, can someone confirm the assay call for CCOC(=O)C/C(C)=N\O ?
### Response f

### Prompt Hi team, can someone confirm the assay call for Cc1cc2nc(CC(=O)c3cccc([N+](=O)[O-])c3)c(=O)[nH]c2cc1C ?
### Response f

### Prompt Hi team, can someone confirm the assay call for NC(CSC(c1ccccc1)(c1ccccc1)c1ccccc1)C(=O)O (configuration not stated) ?
### Response f

### Prompt Hi team, can someone confirm the assay call for Cc1ccc(CCCC(=O)O)c(C)c1 ?
### Response f

### Prompt Hi team, can someone confirm the assay call for N#CC1(Nc2ccc3c4c(cccc24)CC3)CCCCC1 ?
### Response f

### Prompt Hi team, can someone confirm the assay call for Nc1ccc(CC(=O)O)c(N)c1 ?
### Response f

### Prompt Hi team, can someone confirm the assay call for O/N=C/c1ccc(O)cc1O ?
### Response f

### Prompt Hi team, can someone confirm the assay call for CC1(C)N=C(N)N=C(N)N1c1cccc(Br)c1 ?
### Response f

### Prompt Hi team, can someone confirm the assay call for CC(C)COC(=O)COC(=O)OCCOCCOC(=O)OCC(=O)OCC(C)C ?
### Response f

### Prompt Hi team, can someone confirm the assay call for Cc1ccc(N)cc1[N+](=O)[O-] ?
### Response f

### Prompt Hi team, can someone confirm the assay call for CC(=O)OCC1=CC2OC(=O)C3=COC(OC4OC(CO)C(O)C(O)C4O)C1C32 (configuration not stated) ?
### Response f

### Prompt Hi team, can someone confirm the assay call for CC[N+](C)(CC)CCO ?
### Response f

### Prompt Hi team, can someone confirm the assay call for CC(C)(C)c1cc(O)c(C(C)(C)C)cc1O ?
### Response f

### Prompt Hi team, can someone confirm the assay call for O=C1OC(=O)C2C1C1(Cl)C(Cl)=C(Cl)C2(Cl)C2C(=O)OC(=O)C21 (configuration not stated) ?
### Response f

### Prompt Hi team, can someone confirm the assay call for O=C(CCl)Nc1ccc2c(c1)C(=O)c1ccc(NC(=O)CCl)cc1C2=O ?
### Response t

* * *

# System: IGROV1 ovarian
# Method Notes: NCI-60 one-dose screen, 48 h (100 = growth as untreated, 0 = no growth, -100 = all killed)
# Condition Context: 10 µM
The panel holds about 83,000 compounds, 20% with a hit somewhere; the sample as a whole holds those more often.
Measured Metric: growth (%)
Number in %, nothing else.

### Prompt Please report the measured growth for O=S(=O)(Cc1ccccc1)c1ccccc1
### Response 114

### Prompt Please report the measured growth for CCOc1ccc(I)cc1
### Response 117

### Prompt Please report the measured growth for CC(C)C1CCCCC1O (stereo not given)
### Response 130

### Prompt Please report the measured growth for COc1ccc(Oc2c(I)cc(CC(NC(C)=O)C(=O)O)cc2I)cc1 (stereo not given)
### Response 106

### Prompt Please report the measured growth for CN(C)CCN(Cc1ccccc1)c1ccccc1
### Response 124

### Prompt Please report the measured growth for CC(=O)C1CCCCC1
### Response 106

### Prompt Please report the measured growth for c1ccc(Sc2ccccc2)cc1
### Response 117

### Prompt Please report the measured growth for CC(=O)OCCO
### Response 113

### Prompt Please report the measured growth for O=C(O)C(c1ccccc1)C(O)c1ccccc1 (stereo not given)
### Response 101

### Prompt Please report the measured growth for C#C[C@H]1CCCCCC1O (stereo not given in full)
### Response 107

### Prompt Please report the measured growth for N=c1c(C(=O)OCc2ccccc2)ncc(CCl)n1O
### Response 95

### Prompt Please report the measured growth for C#CCSc1nnnn1-c1ccc(Br)c(C)c1
### Response -28.7

### Prompt Please report the measured growth for COC(=O)c1ccccc1Br
### Response 108

### Prompt Please report the measured growth for N#C/C(=C\c1cc(O)c(O)c(O)c1)C(N)=O
### Response 122

### Prompt Please report the measured growth for CC(=O)Nc1cccc(Cl)c1C
### Response 102
